Test: Plasma pharmacokinetics, part 2 (IPF patients)
Assay type: in vivo, human
Details: human, plasma, inhaled, 3 mg, IPF patients; plasma; Day 1; 3 mg once daily; mean±SD; read-out: T1/2 (converted)
MEASUREMENT_NAME: half-life (h)
Respond numerically; units are h and should not be typed.

-- ask I am curious: what half-life value has been reported for OC[C@H]1O[C@@H](S[C@@H]2O[C@H](CO)[C@H](O)[C@H](n3cc(-c4cccc(F)c4)nn3)[C@H]2O)[C@H](O)[C@@H](n2cc(-c3cccc(F)c3)nn2)[C@H]1O ?
-- reply 6.36

###

Experiment: Plasma pharmacokinetics, part 2 (IPF patients)
Type: in vivo, human
Settings: human, plasma, inhaled, 3 mg, IPF patients; plasma; Day 14; 3 mg once daily; mean±SD; read-out: T1/2 (converted)
MEASUREMENT_NAME: half-life (h)
Numbers only here, please. The scale is h.

-- ask Request the reported half-life associated with OC[C@H]1O[C@@H](S[C@@H]2O[C@H](CO)[C@H](O)[C@H](n3cc(-c4cccc(F)c4)nn3)[C@H]2O)[C@H](O)[C@@H](n2cc(-c3cccc(F)c3)nn2)[C@H]1O [TD139]
-- reply 6.91
